- Test system: Rattus norvegicus
- Experiment: Activity against triglyceride level in obese female Zucker rat serum after 1 week at 100 mg/kg (percent change from pre-treatment)
- Format: functional
Readings of Activity for the listed compounds
Record the value in %, omitting the unit from your answer.

Examples with their reported Activity follow.
Problem: Fill in: Activity of CC(C)(CO)CCCCSCCCCC(C)(C)CO is ___
Solution: -37

Problem: Given the entry CC(C)(CO)CCCC[S+]([O-])CCCCC(C)(C)CO , report its measured Activity.
Solution: -37

Further cases:
Problem: Report Activity for CC(C)(CO)CCCCNC(=O)OCCCCC(C)(C)CO please.
Solution: -52

Problem: So what's the measured Activity for this one? CC(C)(CO)CCCCS(=O)(=O)CCCCC(C)(C)CO
Solution: -34

Problem: Using the record for CC(CO)(CCCSCCCC(C)(CO)c1ccccc1)c1ccccc1 (configuration not stated) , report its Activity.
Solution: -18

Problem: Given CC(C)(CO)CCC[S+]([O-])CCCC(C)(C)CO , state its recorded Activity.
Solution: -36

Problem: Item CC(C)(CO)CCCCOCCCCC(C)(C)CO has what recorded Activity?
Solution: -77
